Taken from patent US11655477B2.

Test system: radish seedling
Assay: Herbicidal activity assay, radish seedling growth inhibition on agar plates
Assay type: in vivo
Settings: Raphanus sativus, 144 h; total seedling length after 6 days, percent inhibition relative to DMSO control, four-parameter logistic fit; read-out: I50 (herbicidal activity, radish seedling assay)
quantity: IC50 (nM)

{"molecule": "CN1C(=O)[C@](O)(Cc2cccc(O)c2)N(C)C(=O)[C@@H]1Cc1c[nH]c2ccc(F)c([N+](=O)[O-])c12 [Compound 9, 5-F-thaxtomin A]", "endpoint-unit": "nM", "number": 560}

###

Tested on: PC-3 cells
Assay: MTT assay to characterize cytotoxicity, PC-3 cells
Format: cell-based, human
Conditions: PC-3, PBS as negative control
quantity: cytotoxicity toward PC-3 cell line (in words)

{"molecule": "CN1C(=O)C(O)(Cc2ccccc2O)N(C)C(=O)C1Cc1c[nH]c2cccc([N+](=O)[O-])c12 (stereo not shown) [Compound 2, ortho-thaxtomin A]", "result": "weak cytotoxicity"}
{"molecule": "CN1C(=O)[C@](O)(Cc2cccc(O)c2)N(C)C(=O)[C@@H]1Cc1c[nH]c2ccc(F)c([N+](=O)[O-])c12 [Compound 9, 5-F-thaxtomin A]", "result": "weak cytotoxicity"}
{"molecule": "CN1C(=O)[C@](O)(Cc2cccc(O)c2)N(C)C(=O)[C@@H]1Cc1c[nH]c2cccc([N+](=O)[O-])c12 [Compound 1, thaxtomin A, reference compound]", "result": "weak cytotoxicity"}
{"molecule": "CN1C(=O)[C@](O)(Cc2ccccc2)N(C)C(=O)[C@@H]1Cc1c[nH]c2cccc([N+](=O)[O-])c12 [Compound 3, thaxtomin B]", "result": "weak cytotoxicity"}

###

Each entry below lists one item and its recorded IC30 (30% inhibitory concentration) toward PC-3 cells value.
Test system: PC-3 cells
Assay: MTT assay to characterize cytotoxicity, PC-3 cells
Format: cell-based, human
Details: prostate cancer PC-3, MTT, 48 to 72 h
quantity: IC30 (30% inhibitory concentration) toward PC-3 cells (µM)

{"molecule": "CN1C(=O)C(O)(Cc2ccccc2O)N(C)C(=O)C1Cc1c[nH]c2cccc([N+](=O)[O-])c12 (stereo not shown)", "endpoint-unit": "µM", "number": 42.38}
{"molecule": "CN1C(=O)[C@](O)(Cc2ccccc2)N(C)C(=O)[C@@H]1Cc1c[nH]c2cccc([N+](=O)[O-])c12", "endpoint-unit": "µM", "number": 37.87}
{"molecule": "CN1C(=O)[C@](O)(Cc2cccc(O)c2)N(C)C(=O)[C@@H]1Cc1c[nH]c2cccc([N+](=O)[O-])c12 [Compound 1, thaxtomin A, reference compound]", "endpoint-unit": "µM", "number": 80.28}
{"molecule": "CN1C(=O)[C@](O)(Cc2cccc(O)c2)N(C)C(=O)[C@@H]1Cc1c[nH]c2ccc(F)c([N+](=O)[O-])c12", "endpoint-unit": "µM", "number": 56.76}
